Tested on: MS2 coat protein
ASSAY_SUMMARY: apparent KD of MS2 coat protein; designed switch direction (-1 OFF switch, 1 ON switch): -1; higher = weaker reporter binding
MEASUREMENT_CONDITIONS: input ligand: none
Rule: satisfied for apparent KD of MS2 coat protein not less than 60 nM, not satisfied for anything less.

stdin: Exam item: decide whether the reported apparent KD of MS2 coat protein for UAAAUGUGAGGAUAUUCGAUUUACUCGGAGACGAGUAGAUCGGAGAAGGCACAUGAGGAUCACCCAUGUUCCUU [Mat - Exclusion 4 - JL Mod - D10] (Eterna round: R97, puzzle: Exclusion 4) is at least 60 nM.
stdout: not satisfied

stdin: Let us now turn to AAAACUCGAGUUAGGAUAUUGAGUGCUAAAAUCACCAAGAAGGAACAUGAGGAUCACCCAUGUAACGAAGGUGA [BmEX4 A.10] (Eterna round: R97, puzzle: Brourd's mod of Exclusion 4)
stdout: not satisfied

stdin: Also need CAGUACUGAGGAUAUACAUGAGGAUCACCCAUGUGAACCAGCUAGGAAACUAGCAAAAGUAGAAGGCAGUACUG [828 mod 2 m7] (Eterna round: R97, puzzle: Exclusion 3) , thanks.
stdout: satisfied

stdin: Then this sequence: GGCUCGCCUCACAUGAGGAUCACCCAUGUACAAAACAAGAGGCAGGAUAUGGGCCGCGCAGCGGGCCAGAAGGGCCGCAUGGGU [Edsodidige] (Eterna round: R96, puzzle: Exclusion NG 3)
stdout: satisfied

stdin: How about this sequence: UGGAAGUGAGGAUAUCCAAUAUAUGACAUGAGGAUCACCCAUGUUUCCACUCGUACCUCCGGAGAAGGCACAAGGU [Ex5 #56] (Eterna round: R97, puzzle: Exclusion 5)
stdout: not satisfied

stdin: // same read-out, input: ACAUGAGGAUCACCCAUGUGACCACAAUGGCUGAUGUAACAACAGGAUAUGUGUGAAUAUCUAACACAGAAGGGUUUUGACUGG [Deportation 58 - Jieux - Exclusion NG 3] (Eterna round: R96, puzzle: Exclusion NG 3)
stdout: satisfied

stdin: What do you have for AACAGUAGAGGAUAUACACGAACAAACAUGAGGAUCACCCAUGUGAAACCGUGCUGUCCGGUAGAAGGCUACUAUA [Zavetiaton] (Eterna round: R97, puzzle: Exclusion 5) ?
stdout: not satisfied

stdin: Also need GCACGGAUGGUAGGAUAUCUGUGCGAUUAGCUCAGAGAAGGACCACAUGAGGAUCACCCAUGUACCUCAAUUAGCUUUCCGUGC [Eli exng1 - 020] (Eterna round: R96, puzzle: Exclusion NG 1) , thanks.
stdout: not satisfied

stdin: Please give the result for UGAGUGCUGCGAGGAUAUACAUGAGGAUCACCCAUGUUUUCCUGUGAGGCUUUGCCUCACAGGAUGUAGAAGGCGCAGUACUCU [JL ENG2 1.14] (Eterna round: R96, puzzle: Exclusion NG 2) too.
stdout: not satisfied

stdin: Can you handle GAUCUACAUGAGGAUCACCCAUGUAAGGAUAUCUACAUUGAAGCCUCGGCUUCAAUGUAGAGAAGGUACAAUUA [E1/10-B2] (Eterna round: R97, puzzle: Exclusion 1) next?
stdout: not satisfied

stdin: Do the same for ACAUCGCCAGAAGUAGGUGACAUGAGGAUCACCCAUGUAGGCUAUUUUGCUCGUUUUAUUUCCACCCUAUUUGCUCC [Eternabot (L1) Solution 13] (Eterna round: R97, puzzle: Sensor, turn-off variant 1) please
stdout: satisfied

stdin: # repeat for UUAGAAAUGGUAGGAUAUUAGUAGUGUUUUACUCUGAUCCACAUGAGGAUCACCCAUGUGAGUAGUGAGAAGGAUCAUUUUAUG [base off of JR design] (Eterna round: R96, puzzle: Exclusion NG 2)
stdout: not satisfied

stdin: And then GACAGCAUGCAGGAUAUACCUCCUCUGCGGACGGUAGAAGGGCGUACAUGAGGAUCACCCAUGUCACCCAUUUC [Eternabot (L2) Solution 61] (Eterna round: R97, puzzle: Exclusion 6) , what is it?
stdout: not satisfied

stdin: Also, ACAUGUCAUCGAGGAUAUUGCACACAUGAGGAUCACCCAUGUAUACGGUUGCUCUUGCGUGAGUUCGAGAAGGCGAUGUACAUU [Ex NG2 #86] (Eterna round: R96, puzzle: Exclusion NG 2) please.
stdout: satisfied

stdin: Please answer likewise for UACACCGCAUGAGGAUCAAACAUGAGGAUCACCCAUGUAUAGCAAGCUUUUUGCUCGUCUUAUAAAUAUGUGGUGUA [Electric Eye 8 - Jieux - Sensor, turn-off variant 1] (Eterna round: R97, puzzle: Sensor, turn-off variant 1)
stdout: not satisfied

stdin: Okay, and AGCCAAGCAGGAUAUGCACGUAAUAACAUGAGGAUCACCCAUGUGACCGAUUUAUAUUCUGCAGAAGGGCUUGGAA [LRO-Excl5-14-mod of Erxesoan mod by Eli Fisker] (Eterna round: R97, puzzle: Exclusion 5) ?
stdout: not satisfied

stdin: Do the same for UUUGUUUGCACAGGAUAUUGUUAUUUUUUUUUUCAAGAAGGGUGUACAUGAGGAUCACCCAUGUUAUGGUUUUAUCUUUUACUU [JR_ExcNG1_Sub011] (Eterna round: R96, puzzle: Exclusion NG 1) please
stdout: satisfied
